Quick reference for log10(GI50) among some compounds
# System: A2780
# TEST DESCRIPTION: Growth inhibition of human A2780 cells after 48 hrs by sulforhodamine B assay
# Type: functional
# EXPERIMENTAL SETUP: A2780, 48 h
VALUE KIND: log10(GI50) (log10 of the value in nM)

{"columns": ["COMPOUND", "VALUE KIND", "RECORDED NUMBER"],
 "data": [
  ["COc1cc([C@@H]2c3cc4c(cc3[C@@H](O[C@@H]3O[C@@H]5CO[C@@H](C)O[C@H]5[C@H](O)[C@H]3O)[C@H]3COC(=O)[C@H]23)OCO4)cc(OC)c1O [ETOPOSIDE]", "log10(GI50)", 3.11],
  ["COc1cc([C@@H]2c3cc4c(cc3[C@@H](OC(=O)NC(C)C)[C@H]3COC(=O)[C@H]23)OCO4)cc(OC)c1OC", "log10(GI50)", 2.15],
  ["C#CCNC(=O)O[C@@H]1c2cc3c(cc2[C@@H](c2cc(OC)c(OC)c(OC)c2)[C@H]2C(=O)OC[C@@H]21)OCO3", "log10(GI50)", 2.20],
  ["O=c1[nH]cc(F)c(=O)[nH]1", "log10(GI50)", 3.54],
  ["COCCNC(=O)O[C@@H]1c2cc3c(cc2[C@@H](c2cc(OC)c(OC)c(OC)c2)[C@H]2C(=O)OC[C@@H]21)OCO3", "log10(GI50)", 2.18],
  ["COc1cc([C@@H]2c3cc4c(cc3[C@@H](OC(=O)NCc3ccc(C(F)(F)F)cc3)[C@H]3COC(=O)[C@H]23)OCO4)cc(OC)c1OC", "log10(GI50)", 2.26],
  ["COc1cc([C@@H]2c3cc4c(cc3[C@@H](OC(=O)NCCN(C)C)[C@H]3COC(=O)[C@H]23)OCO4)cc(OC)c1OC", "log10(GI50)", 2.08],
  ["CCCNC(=O)O[C@@H]1c2cc3c(cc2[C@@H](c2cc(OC)c(OC)c(OC)c2)[C@H]2C(=O)OC[C@@H]21)OCO3", "log10(GI50)", 2.28],
  ["COc1cc([C@@H]2c3cc4c(cc3[C@@H](OC(=O)N(C)C)[C@H]3COC(=O)[C@H]23)OCO4)cc(OC)c1OC", "log10(GI50)", 2.26]
]}

###

# System: A549
# TEST DESCRIPTION: Growth inhibition of human A549 cells after 48 hrs by sulforhodamine B assay
# Type: functional
# EXPERIMENTAL SETUP: A549, 48 h
VALUE KIND: GI50

{"columns": ["MOLECULE", "RESULT"],
 "data": [
  ["COc1cc([C@@H]2c3cc4c(cc3[C@@H](OC(=O)NCCN(C)C)[C@H]3COC(=O)[C@H]23)OCO4)cc(OC)c1OC", "< 100 nM"],
  ["O=c1[nH]cc(F)c(=O)[nH]1", "2400 nM"],
  ["C#CCNC(=O)O[C@@H]1c2cc3c(cc2[C@@H](c2cc(OC)c(OC)c(OC)c2)[C@H]2C(=O)OC[C@@H]21)OCO3", "< 100 nM"],
  ["COc1cc([C@@H]2c3cc4c(cc3[C@@H](OC(=O)NCCc3c[nH]c5ccccc35)[C@H]3COC(=O)[C@H]23)OCO4)cc(OC)c1OC", "< 100 nM"],
  ["COc1cc([C@@H]2c3cc4c(cc3[C@@H](O[C@@H]3O[C@@H]5CO[C@@H](C)O[C@H]5[C@H](O)[C@H]3O)[C@H]3COC(=O)[C@H]23)OCO4)cc(OC)c1O [ETOPOSIDE]", "3080 nM"],
  ["CCCNC(=O)O[C@@H]1c2cc3c(cc2[C@@H](c2cc(OC)c(OC)c(OC)c2)[C@H]2C(=O)OC[C@@H]21)OCO3", "< 100 nM"],
  ["COc1cc([C@@H]2c3cc4c(cc3[C@@H](OC(=O)NC(C)C)[C@H]3COC(=O)[C@H]23)OCO4)cc(OC)c1OC", "< 100 nM"],
  ["COc1cc([C@@H]2c3cc4c(cc3[C@@H](OC(=O)NCc3ccc(C(F)(F)F)cc3)[C@H]3COC(=O)[C@H]23)OCO4)cc(OC)c1OC", "< 100 nM"],
  ["COc1cc([C@@H]2c3cc4c(cc3[C@@H](OC(=O)N(C)C)[C@H]3COC(=O)[C@H]23)OCO4)cc(OC)c1OC", "< 100 nM"],
  ["COc1cc([C@@H]2c3cc4c(cc3[C@@H](OC(=O)N3CCOCC3)[C@H]3COC(=O)[C@H]23)OCO4)cc(OC)c1OC", "< 100 nM"]
]}

###

Quick reference for GI50 among some molecules
# TEST DESCRIPTION: Growth inhibition of human Gurav cells after 48 hrs by sulforhodamine B assay
# Assay type: functional

{"columns": ["MOLECULE", "GI50"],
 "data": [
  ["COc1cc([C@@H]2c3cc4c(cc3[C@@H](OC(=O)NCC3CC3)[C@H]3COC(=O)[C@H]23)OCO4)cc(OC)c1OC", "0.18 µM"],
  ["COc1cc([C@@H]2c3cc4c(cc3[C@@H](OC(=O)NCCN(C)C)[C@H]3COC(=O)[C@H]23)OCO4)cc(OC)c1OC", "0.15 µM"],
  ["COc1cc([C@@H]2c3cc4c(cc3[C@@H](O[C@@H]3O[C@@H]5CO[C@@H](C)O[C@H]5[C@H](O)[C@H]3O)[C@H]3COC(=O)[C@H]23)OCO4)cc(OC)c1O [ETOPOSIDE]", "0.5 µM"],
  ["COc1cc([C@@H]2c3cc4c(cc3[C@@H](OC(=O)NCc3ccc(C(F)(F)F)cc3)[C@H]3COC(=O)[C@H]23)OCO4)cc(OC)c1OC", "0.19 µM"]
]}

###

Quick reference for GI50 among some molecules
# Tested on: HOP-62
# TEST DESCRIPTION: Growth inhibition of human HOP62 cells after 48 hrs by sulforhodamine B assay
# Format: functional
# EXPERIMENTAL SETUP: HOP-62, 48 h

{"columns": ["MOLECULE", "READOUT UNITS", "GI50"],
 "data": [
  ["COc1cc([C@@H]2c3cc4c(cc3[C@@H](OC(=O)NCCN(C)C)[C@H]3COC(=O)[C@H]23)OCO4)cc(OC)c1OC", "µM", 0.12],
  ["COc1cc([C@@H]2c3cc4c(cc3[C@@H](OC(=O)NCc3ccc(C(F)(F)F)cc3)[C@H]3COC(=O)[C@H]23)OCO4)cc(OC)c1OC", "µM", 2.3],
  ["COc1cc([C@@H]2c3cc4c(cc3[C@@H](OC(=O)NCC3CC3)[C@H]3COC(=O)[C@H]23)OCO4)cc(OC)c1OC", "µM", 2.5],
  ["O=c1[nH]cc(F)c(=O)[nH]1", "µM", 4.1],
  ["COc1cc([C@@H]2c3cc4c(cc3[C@@H](O[C@@H]3O[C@@H]5CO[C@@H](C)O[C@H]5[C@H](O)[C@H]3O)[C@H]3COC(=O)[C@H]23)OCO4)cc(OC)c1O [ETOPOSIDE]", "µM", 0.8],
  ["COc1cc([C@@H]2c3cc4c(cc3[C@@H](OC(=O)N(C)C)[C@H]3COC(=O)[C@H]23)OCO4)cc(OC)c1OC", "µM", 0.13],
  ["COc1cc([C@@H]2c3cc4c(cc3[C@@H](OC(=O)NC(C)C)[C@H]3COC(=O)[C@H]23)OCO4)cc(OC)c1OC", "µM", 2.1],
  ["COCCNC(=O)O[C@@H]1c2cc3c(cc2[C@@H](c2cc(OC)c(OC)c(OC)c2)[C@H]2C(=O)OC[C@@H]21)OCO3", "µM", 0.12],
  ["C#CCNC(=O)O[C@@H]1c2cc3c(cc2[C@@H](c2cc(OC)c(OC)c(OC)c2)[C@H]2C(=O)OC[C@@H]21)OCO3", "µM", 0.14],
  ["COc1cc([C@@H]2c3cc4c(cc3[C@@H](OC(=O)NCCc3c[nH]c5ccccc35)[C@H]3COC(=O)[C@H]23)OCO4)cc(OC)c1OC", "µM", 2.1],
  ["COc1cc([C@@H]2c3cc4c(cc3[C@@H](OC(=O)N3CCOCC3)[C@H]3COC(=O)[C@H]23)OCO4)cc(OC)c1OC", "µM", 0.13]
]}
